Assay Remarks: Pharmacokinetic experiment in mice
Type: in vivo
Settings: mouse, po; male BALB/c mice, I.G., 10 mg/kg, plasma
Measured Metric: AUC(0-inf) (ng·h/mL)

Compound: Nc1nccc(Sc2cnc(N3CCC4(CC3)Oc3ccccc3[C@H]4N)n3ccnc23)c1Cl
Measured Metric: AUC(0-inf)
Unit Info: ng·h/mL
Numeric Value: 21600

(1) Cn1c(N2CCC3(CC2)Oc2ccccc2[C@H]3N)nc(N)c(Sc2cccnc2C(F)(F)F)c1=O
(2) Cc1nc(N2CCC3(CC2)Oc2ccccc2[C@H]3N)n2ccnc2c1-c1cccc(Cl)c1Cl
Exam item: For the two items 1 and 2 , which reports the higher AUC(0-inf) value? Write down the label of the entry you select.
Marked response: 2
(2: 37000 ng·h/mL, 1: 7410 ng·h/mL)

These data points were gathered from patent US20230002355A1.
